Documented logP across a set of compounds

| compound | logP |
| --- | --- |
| COCC(O)Cn1c(Br)cnc1[N+](=O)[O-] (stereo not given) | 0.16 |
| CC(=O)OC(C)(C)C1CCC2(C)CCCC(=O)C2C1 (stereo not given) | 3.2 |
| CCC1C(=O)N(CCN(C)C)c2cccc(C(F)(F)F)c2CC1c1ccc(OC)cc1 (stereo not given) | 6.3 |
| CCC1(C(=O)NC(C)c2ccc(Cl)cc2)C(C)C1(Cl)Cl (stereo not given) | 4.23 |
| Nc1nc(N)c2c(Oc3ccccc3)cccc2n1 | 2.78 |
| C[C@]12CCC(=O)C=C1[C@@H]1C[C@@H]1[C@@H]1[C@@H]2CC[C@@]2(C)[C@H]1CC[C@@]21CCC(=O)O1 | 3.08 |
| c1ccc2c(c1)OCC(C1=NCCN1)O2 (stereo not given) | 1.63 |
| Clc1c(Br)cccc1N=C1NCCN1 | 1.82 |
| CCN(CC)C(=O)c1cn2c(C)c(C)nc2c2c1CCC(c1ccccc1)O2 (stereo not given) | 4 |
| CC(CO)CNc1[nH]cnc2ncnc1-2 (stereo not given) | 0.61 |
| CC(O)CN(C)C (stereo not given) | 0.2 |
| NC(Cc1c[nH]c2ccccc12)C(=O)N1CCCC1C(=O)O (stereo not given) | -0.98 |
| O=C(Cc1ccccc1)Nc1[nH]cnc2ncnc1-2 | 1.19 |
| c1ccc2c(c1)OCC(CCc1ncc[nH]1)O2 (stereo not given) | 1.99 |
| Cn1c2c(c3cc([N+](=O)[O-])ccc31)CCNC2 | 2.07 |

---

assayReadout: logP

| compound | experimentalValue |
| --- | --- |
| c1ccc(CSSc2ncc[nH]2)cc1 | 3.05 |
| c1ccc(N2CCN(CCn3nc4ccccc4n3)CC2)cc1 | 3.34 |
| CCCOc1cccc(CNc2[nH]cnc3ncnc2-3)c1 | 3.12 |
| CCCc1nc(NC)nc(N2CCOCC2)n1 | 2.15 |
| CCOC(=O)C(CCc1ccccc1)NC(C)C(=O)N1N=C(C(C)(C)C)SC1C(=O)O (stereo not given) | 1.62 |
| CCCNC(=O)c1[nH]cc(-c2ccc(Cl)cc2)c1N1CCOCC1 | 4.2 |
| CCc1cccc(C)c1NC(=O)OC | 1.99 |
| CCN(C)CC(=O)Nc1c(C)cccc1C | 1.82 |
| O=C(O)Cc1ccccc1Nc1c(F)cccc1F | 3.57 |
| CC(=O)OCC1OC(n2ccc(=O)[nH]c2=O)C(OC(C)=O)C1OC(C)=O (stereo not given) | -0.36 |

---

Documented logP across a set of compounds
Where a SMILES comes first, the peptide text is derived from it.

| compound | logP |
| --- | --- |
| OCCCCCCCCCNc1[nH]cnc2ncnc1-2 | 2.75 |
| Nc1nc(N)c2c(N)cccc2n1 | 0.3 |
| CC(C)CCCCNc1[nH]cnc2ncnc1-2 | 3.61 |
| CCCCC(O)C(CCCCOc1cccc(C)c1)n1cncn1 (stereo not given) | 3.6 |
| O=C(NS(=O)(=O)c1cnccc1NC1CCCCCC1)N1CCCCCC1 | 4.43 |
| CN1CC(O)N(C(=O)NC(C)(C)C)C1=O (stereo not given) | 1.38 |
| COc1cc(OS(C)(=O)=O)ccc1-c1cn2cccnc2n1 | 1.05 |
| NCC(=O)NC(Cc1ccccc1)C(=O)NC(Cc1ccccc1)C(=O)O (stereo not drawn) (H-Gly-Phe-Phe-OH; configuration not given here) | -1.33 |
| Cc1ccc(C)c(-n2nnnc2N)c1 | 1.45 |
| CC(C)NC(=NC#N)NS(=O)(=O)c1cnccc1Nc1cccc(Br)c1 | 2.27 |

---

Documented logP across a set of compounds

| compound | logP |
| --- | --- |
| COC(=O)C(C)NP(=O)(OCC1C=CC(n2cc(C)c(=O)[nH]c2=O)O1)Oc1cccc(C(C)=O)c1 (stereo unspecified) | 0.92 |
| CCC(CC)(C(=O)OC)S(=O)(=O)c1ccc([N+](=O)[O-])cc1 | 2.24 |
| COc1ccc(CCNCC(O)CON=C(C2CC2)C2CC2)cc1OC (stereo unspecified) | 2.42 |
| COc1ccc(N2CC(N3CCCCC3)=NC2=O)cc1 | 1.5 |
| Cc1nc2c3c(c(C(=O)N4CCCC4)cn2c1C)CCC(c1ccccc1)O3 (stereo unspecified) | 3.6 |
| O=C(NCC(F)(F)F)NS(=O)(=O)c1cnccc1NC1CCCCCC1 | 3.85 |

---

Label Y for high-side logP (at or above 3) and N for low-side logP (below it).

| compound | assignedClass |
| --- | --- |
| Cc1cc2cc3c(C)cc(=O)oc3cc2o1 | N |
| Clc1ccc(CNc2ncnc3nc[nH]c23)cc1 | N |
| Cc1ccc(CO)c(C=NNC(=O)c2cccc(Cl)c2)c1O | Y |
| Cc1sc2ccc3c(C)cc(=O)oc3c2c1C | Y |
| O=C1c2ccccc2-c2nnc(C(F)(F)F)cc21 | N |
| CC(=O)c1cc2cccc3ccc4cccc1c4c32 | Y |
| COCCCNc1[nH]cnc2ncnc1-2 | N |
| O=C(NC(Cc1c[nH]c2ccccc12)C(=O)O)OCc1ccccc1 (centres undefined) | Y |
| S=C=NCCCCCCCCc1ccccc1 | Y |
| Nc1nnnn1-c1cc(Cl)ccc1Cl | N |
| CC1=C2C3OC(=O)C(C)C3C(O)C(O)C2(C)C=CC1=O (centres undefined) | N |
| CCCCc1c(O)c(=O)cc(C)n1C | N |
| Cc1ccc(C(=O)OCCCn2ccc(=O)c(O)c2C)cc1 | N |
| O=c1cc(-c2ccc(Cl)cc2Cl)oc2ccccc12 | Y |
| Nc1nc(N)c2c([N+](=O)[O-])cccc2n1 | N |
| Clc1ccc(N2CCN(CCn3nc4ccccc4n3)CC2)cc1 | Y |
| Cc1nc([N+](=O)[O-])c(Cl)[nH]1 | N |
| CNC(C)Cc1ccc(F)cc1 (centres undefined) | N |
| O=Cc1ccc2ccc3cccc4ccc1c2c34 | Y |
| Cc1cnc2ccc3c(nc(N)n3C)c2n1 | N |
| Clc1c2ccccc2cc2ccccc12 | Y |
| O=C(Nc1ccccc1)c1ccccc1I | N |
| CCc1cccc(COC(=O)C2C(C=C(C)C(=O)OC)C2(C)C)c1 (centres undefined) | Y |
| O=C(O)CCCCCON=C(c1ccccc1)c1ncccn1 | N |
| CCCC(=NOCC)C1=C(O)CC2(CCC(C)CC2)OC1=O (centres undefined) | Y |
| CCOC(=O)C(C)(Cc1ccccc1)S(=O)(=O)c1ccc([N+](=O)[O-])cc1 (centres undefined) | Y |
| CCCCC(=O)C(CCCCOc1cccc(F)c1)n1cncn1 (centres undefined) | Y |
| CC(C)NCC(O)CN1C(=O)COc2ccccc21 (centres undefined) | N |

---

Where a SMILES comes first, the peptide text is derived from it.
Returns: string. Value is T if measured logP is below 2, and F if it is greater than or equal to it.

| compound | assignedClass |
| --- | --- |
| CC(C)=CCNc1ncnc2nc[nH]c12 | F |
| COC(=O)Nc1c(C)cccc1C | T |
| CC(C)CC(NC(=O)C(CC(C)C)NC(=O)C1CCCN1)C(=O)O (stereo not drawn) (H-Pro-Leu-Leu-OH; configuration not given here) | T |
| Cc1cc2c(ccc3c(C)cc(=O)n(C)c32)o1 | F |
| O=C1CN=C(c2ccccc2F)c2cc(Br)ccc2N1 | F |
| On1nnc2ccccc21 | T |
| CC1CCCCC1NC(=O)N1C(=O)N(C)CC1O (configuration not stated) | F |

---

| molecule | logP |
| --- | --- |
| COc1ccc(CCNCC(O)COc2ccc(OCc3ncc[nH]3)cc2)cc1OC (stereo not drawn) | 2.6 |
| OCCNc1ncnc2nc[nH]c12 | -0.18 |
| COc1cc2ncnc(Nc3ccc(F)cc3)c2cc1OC | 2.87 |

---

| smilesRepr | logP |
| --- | --- |
| Oc1ccccc1CNc1ncnc2nc[nH]c12 | 2.05 |
| COc1cc(Cl)cc(Cl)c1O | 2.86 |
| CC(=O)N(O)CCCCCNC(=O)CCC(=O)N(O)CCCCCNC(=O)CCC(=O)N(O)CCCCCNC=O | -0.33 |
| CC(=O)Nc1ccc(S(=O)(=O)Nc2cc(C)nc(C)n2)cc1 | -0.14 |

---

Documented logP across a set of compounds
assayReadout: logP

| compound | assayReadout | experimentalValue |
| --- | --- | --- |
| CCOP(=O)(OCC)C(C)(C)[N+]([O-])=Cc1cc[n+]([O-])cc1 | logP | -0.74 |
| CCCc1ccccc1CNc1[nH]cnc2ncnc1-2 | logP | 3.47 |
| Cc1cccc(C)c1CCn1ccnc1 | logP | 2.73 |
| Nc1nnnn1-c1cccc(O)c1 | logP | 0.56 |
| C[N+](C)([O-])CCCC(c1ccccc1)c1ccccc1 | logP | 1.45 |
| CC1=CC(=C2C(=O)c3ccccc3C2=O)C=C(C)N1CCCNC(=O)N(CCCl)N=O | logP | 2.84 |
| CN1CC(O)N(C(=O)NCCCl)C1=O (stereo not drawn) | logP | 0.71 |
| CN(C)C(C)(C)O | logP | 0.2 |
